Just for reference, patent US6737383B1 is where these values come from.

Plant response rating, B. signalgrass values, listed per item
Tested on: surinam grass
Test: Test B pre/postemergence surinam grass
Format: in vivo, Brachiaria decumbens
Experimental Parameters: Rate 250 g/ha, Postemergence; scale of 0 to 10 where 0 is no effect and 10 is complete control
Please give only the number in your answer, with no unit.

Examples with their reported Plant response rating, B. signalgrass follow.
Value of Plant response rating, B. signalgrass reported for the compound COCC(C)n1c(=O)on(C(=O)N(c2ccc(F)cc2F)C(C)C)c1=O (centres unmarked) is 7

Value of Plant response rating, B. signalgrass reported for the compound Cc1ccccc1-n1c(=O)on(C(=O)N(c2cccc(F)c2)C(C)C)c1=O is 0

Value of Plant response rating, B. signalgrass reported for the compound CC(C)=CCn1c(=O)on(C(=O)N(c2ccccc2)C(C)C)c1=O is 0

***
Value of Plant response rating, B. signalgrass reported for the compound CC(C)N(C(=O)n1oc(=O)n(C2CCCCCC2)c1=O)c1ccccc1 is 0

Value of Plant response rating, B. signalgrass reported for the compound Cc1noc(C)c1Cn1c(=O)on(C(=O)N(c2ccc(Cl)cc2)C(C)C)c1=O is 0

---

System: bedstraw
Test: Test B pre/postemergence bedstraw
Format: in vivo, Galium aparine
Experimental Parameters: Postemergence, Rate 125 g/ha; scale of 0 to 10 where 0 is no effect and 10 is complete control
Readout Label: Bedstraw plant response rating
Please give only the number in your answer, with no unit.

Examples with their reported Bedstraw plant response rating follow.
Value of Bedstraw plant response rating reported for the compound COC(=O)C(CCO)n1c(=O)on(C(=O)N(c2ccccc2)C(C)C)c1=O (centres unmarked) is 0

Value of Bedstraw plant response rating reported for the compound CCOP(=O)(OCC)C(C)n1c(=O)on(C(=O)N(c2ccc(F)cc2F)C(C)C)c1=O (centres unmarked) is 3

Value of Bedstraw plant response rating reported for the compound CC(C)N(C(=O)n1oc(=O)n(CCCl)c1=O)c1ccc(F)cc1 is 5

Value of Bedstraw plant response rating reported for the compound C=C(C)Cn1c(=O)on(C(=O)N(c2ccc(F)cc2)C(C)C)c1=O is 2

Value of Bedstraw plant response rating reported for the compound CC(C)N(C(=O)n1oc(=O)n(CC(F)F)c1=O)c1ccccc1 is 7

Value of Bedstraw plant response rating reported for the compound CC(C)N(C(=O)n1oc(=O)n(C(C)c2ccccc2)c1=O)c1ccc(F)cc1 (centres unmarked) is 4

***
Value of Bedstraw plant response rating reported for the compound CC(C)N(C(=O)n1oc(=O)n(-c2nc(Cl)sc2Cl)c1=O)c1ccc(F)cc1 is 0

Value of Bedstraw plant response rating reported for the compound COC(=O)N(C)CCn1c(=O)on(C(=O)N(c2ccccc2)C(C)C)c1=O is 0

---

Test system: duck salad
Test: Test B flood test duck salad
Format: in vivo, Heteranthera limosa
Experimental Parameters: Rate 500 g/ha; Pre-emergence; flood test species; scale 0 to 10 (0 no effect, 10 complete control)
Ducksalad plant response rating values, listed per item

Value of Ducksalad plant response rating reported for the molecule CCC(CC)n1c(=O)on(C(=O)N(c2ccc(F)cc2F)C(C)C)c1=O is 0

Value of Ducksalad plant response rating reported for the molecule CC(C)N(C(=O)n1oc(=O)n(Cc2cnc(Cl)s2)c1=O)c1ccc(F)cc1 is 0

***
Value of Ducksalad plant response rating reported for the molecule CC(C)N(C(=O)n1oc(=O)n(C2CCC2)c1=O)c1ccc(F)cc1 is 0

Value of Ducksalad plant response rating reported for the molecule CC(C)N(C(=O)n1oc(=O)n(C2CCCCCC2)c1=O)c1ccccc1 is 3
